- assayedTarget: T1, FX activation peptide 12-mer DSITWKPYDAAD (human)
- T1 peptide: DSITWKPYDAAD-biotin
- testDescription: peptide ELISA
Ends that are not written are not given here.
measuredParameter: ELISA signal relative to background

Nb 701D07 (VHH, monovalent Nanobody; not shown: C-terminal FLAG3 and HIS6 tag) VHH: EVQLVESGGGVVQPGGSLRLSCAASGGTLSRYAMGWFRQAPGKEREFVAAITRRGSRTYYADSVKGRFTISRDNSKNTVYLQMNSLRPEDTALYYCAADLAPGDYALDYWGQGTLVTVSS
0.89
Nb 729A04 (VHH, monovalent Nanobody; not shown: C-terminal FLAG3 and HIS6 tag) VHH: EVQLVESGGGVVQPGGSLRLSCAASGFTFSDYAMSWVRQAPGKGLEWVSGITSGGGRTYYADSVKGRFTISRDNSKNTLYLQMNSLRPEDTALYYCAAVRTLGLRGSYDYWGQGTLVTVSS
1.05
Nb 701B09 (VHH, monovalent Nanobody; also called Nb 701609; not shown: C-terminal FLAG3 and HIS6 tag) VHH: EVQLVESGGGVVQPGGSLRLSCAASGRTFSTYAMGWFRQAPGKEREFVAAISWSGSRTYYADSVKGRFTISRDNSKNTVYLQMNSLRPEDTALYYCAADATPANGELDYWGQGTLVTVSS
0.76

Query string: Tell me the measured ELISA signal relative to background of Nb 702C12 (VHH, monovalent Nanobody; not shown: C-terminal FLAG3 and HIS6 tag) VHH: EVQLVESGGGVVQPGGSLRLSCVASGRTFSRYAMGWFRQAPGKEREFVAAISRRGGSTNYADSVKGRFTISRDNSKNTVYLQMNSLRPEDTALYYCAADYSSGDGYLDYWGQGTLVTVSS , please.
Result string: 1.08
